test-summary: DRUGMATRIX: Leukotriene, BLT (LTB4) radioligand binding (ligand: [3H]LTB4)
Format: cell membranes, Membrane
condition-description: u-937; Not Active = under 50% inhibition at 10 µM
recorded-endpoint: Ki

As a guide, the following entries are already answered.
| molecule | Ki |
| --- | --- |
| C=C1C(=O)O[C@@H]2C3O[C@]3(C)CC/C=C(\C)CC[C@@H]12 (stereo partly drawn) | Not Active |
| CC1(C)S[C@@H]2[C@H](NC(=O)[C@H](NC(=O)N3CCNC3=O)c3ccccc3)C(=O)N2[C@H]1C(=O)O [AZLOCILLIN] | Not Active |
| CN1C[C@H](C(=O)N[C@]2(C)O[C@@]3(O)[C@@H]4CCCN4C(=O)[C@H](Cc4ccccc4)N3C2=O)C=C2c3cccc4[nH]cc(c34)C[C@H]21 [ERGOTAMINE] | Not Active |
| C[C@]12Cc3c[nH]nc3C[C@@H]1CC[C@@H]1[C@@H]2CC[C@@]2(C)[C@H]1CC[C@]2(C)O [STANOZOLOL] | Not Active |

Your task in this section: give Ki for each listed record.
1. CC(C)n1c(/C=C/C(O)CC(O)CC(=O)O)c(-c2ccc(F)cc2)c2ccccc21 (stereo not drawn) [FLUVASTATIN]
2. Nc1ccc(S(=O)(=O)Nc2ccnn2-c2ccccc2)cc1 [SULFAPHENAZOLE]
3. O=C1OCCN1/N=C/c1ccc([N+](=O)[O-])o1 [FURAZOLIDONE]
4. COc1ccc(CN(CCN(C)C)c2ccccn2)cc1 [PYRILAMINE]

Reply text:
["Not Active", "Not Active", "Not Active", "Not Active"]

====

measured-target: Sodium-dependent dopamine transporter (Homo sapiens)
Sequence (Q01959 whole entry): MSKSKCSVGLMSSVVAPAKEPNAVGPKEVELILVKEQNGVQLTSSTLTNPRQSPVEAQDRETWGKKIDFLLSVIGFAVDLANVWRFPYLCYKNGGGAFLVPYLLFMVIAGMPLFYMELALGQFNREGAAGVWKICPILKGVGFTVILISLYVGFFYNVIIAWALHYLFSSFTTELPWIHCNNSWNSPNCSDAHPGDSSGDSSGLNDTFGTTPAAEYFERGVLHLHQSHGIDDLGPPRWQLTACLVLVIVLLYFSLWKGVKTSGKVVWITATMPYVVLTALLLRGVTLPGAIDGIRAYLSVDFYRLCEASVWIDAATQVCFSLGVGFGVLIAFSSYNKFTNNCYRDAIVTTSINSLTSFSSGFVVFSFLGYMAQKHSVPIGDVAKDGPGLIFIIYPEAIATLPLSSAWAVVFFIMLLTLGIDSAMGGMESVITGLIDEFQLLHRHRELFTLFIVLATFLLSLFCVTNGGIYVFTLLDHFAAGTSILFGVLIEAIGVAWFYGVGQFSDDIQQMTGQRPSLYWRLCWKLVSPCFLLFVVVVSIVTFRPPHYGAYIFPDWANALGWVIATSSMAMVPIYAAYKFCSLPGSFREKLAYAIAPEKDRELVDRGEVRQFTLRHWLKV
test-summary: DRUGMATRIX: Dopamine Transporter radioligand binding (ligand: [125I] RTI-55)
Assay type: cell membranes, CHO-K1, Membrane
condition-description: cho-k1; Not Active = under 50% inhibition at 10 µM; read-out: Ki
recorded-endpoint: Ki (µM)
Answers are plain numbers, in µM.

Inquiry: // Ki lookup, key: `IVERMECTIN`
Reply text: 3.54

====

measured-target: Mitogen-activated protein kinase 1 (Homo sapiens, UniProt P28482)
Sequence (P28482 whole entry): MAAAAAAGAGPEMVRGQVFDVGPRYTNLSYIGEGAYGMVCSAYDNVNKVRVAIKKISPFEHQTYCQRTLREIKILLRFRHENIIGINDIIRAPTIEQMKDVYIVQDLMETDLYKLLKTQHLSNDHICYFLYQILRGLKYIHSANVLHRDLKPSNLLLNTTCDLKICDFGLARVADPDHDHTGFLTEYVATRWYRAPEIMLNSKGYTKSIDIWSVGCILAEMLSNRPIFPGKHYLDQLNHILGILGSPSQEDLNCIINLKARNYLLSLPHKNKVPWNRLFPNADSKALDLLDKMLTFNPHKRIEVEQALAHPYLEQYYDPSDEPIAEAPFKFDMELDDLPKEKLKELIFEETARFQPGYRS
test-summary: DRUGMATRIX: Protein Serine/Threonine Kinase, ERK2 enzyme inhibition (substrate: Myelin Basic Protein)
Parameters: species or system Escherichia coli
condition-description: Not Active = under 50% inhibition at 10 µM
recorded-endpoint: IC50

As a guide, the following entries are already answered.
| molecule | recorded-endpoint | result |
| --- | --- | --- |
| O=C1c2c(O)ccc(O)c2C(=O)c2c(NCCNCCO)ccc(NCCNCCO)c21 | IC50 | Not Active |
| CN(N=O)C(=O)N[C@@H](C=O)[C@@H](O)[C@H](O)[C@H](O)CO | IC50 | Not Active |
| CCc1ccc(C(=O)C(C)CN2CCCCC2)cc1 (centres undefined) | IC50 | Not Active |
| COc1ccc([C@@H]2Sc3ccccc3N(CCN(C)C)C(=O)[C@@H]2OC(C)=O)cc1 | IC50 | Not Active |
| CC[C@@]1(O)C(=O)OCc2c1cc1n(c2=O)Cc2cc3ccccc3nc2-1 | IC50 | Not Active |
| CSc1ccc2c(c1)N(CCC1CCCCN1C)c1ccccc1S2 (centres undefined) | IC50 | Not Active |

Your task in this section: give IC50 for each listed record.
1. C=C(C)[C@@H]1[C@H]2OC(=O)[C@@H]1[C@]1(O)C[C@H]3O[C@]34C(=O)O[C@H]2[C@]14C
2. CC1(C)[C@@H](O[C@H]2O[C@H](C(=O)O)[C@@H](O)[C@H](O)[C@H]2O[C@@H]2O[C@H](C(=O)O)[C@@H](O)[C@H](O)[C@H]2O)CC[C@]2(C)[C@H]3C(=O)C=C4[C@@H]5C[C@@](C)(C(=O)O)CC[C@]5(C)CC[C@@]4(C)[C@]3(C)CC[C@@H]12
3. NC(=O)c1ccccc1O [SALICYLAMIDE]
4. Cc1cc(NS(=O)(=O)c2ccc(N)cc2)no1

Reply text:
Not Active
Not Active
Not Active
Not Active

Your task in this section: give IC50 for each listed record.
1. NC(=O)c1ncn([C@@H]2O[C@H](CO)[C@@H](O)[C@H]2O)n1
2. O=[N+]([O-])c1cc([As](=O)(O)O)ccc1O
3. c1ccc2c(c1)cc1ccc3cccc4ccc2c1c34
4. CN[C@H](CC(C)C)C(=O)N[C@H]1C(=O)N[C@@H](CC(N)=O)C(=O)N[C@H]2C(=O)N[C@H]3C(=O)N[C@H](C(=O)N[C@H](C(=O)O)c4cc(O)cc(O)c4-c4cc3ccc4O)[C@H](O)c3ccc(c(Cl)c3)Oc3cc2cc(c3O[C@@H]2O[C@H](CO)[C@@H](O)[C@H](O)[C@H]2O[C@H]2C[C@](C)(N)[C@H](O)[C@H](C)O2)Oc2ccc(cc2Cl)[C@H]1O

Reply text:
Not Active
Not Active
Not Active
Not Active

====

measured-target: Delta-type opioid receptor (Homo sapiens, UniProt P41143); also: in other assays of this panel Not Active means under 50% inhibition at 10 µM
Sequence (P41143 whole entry): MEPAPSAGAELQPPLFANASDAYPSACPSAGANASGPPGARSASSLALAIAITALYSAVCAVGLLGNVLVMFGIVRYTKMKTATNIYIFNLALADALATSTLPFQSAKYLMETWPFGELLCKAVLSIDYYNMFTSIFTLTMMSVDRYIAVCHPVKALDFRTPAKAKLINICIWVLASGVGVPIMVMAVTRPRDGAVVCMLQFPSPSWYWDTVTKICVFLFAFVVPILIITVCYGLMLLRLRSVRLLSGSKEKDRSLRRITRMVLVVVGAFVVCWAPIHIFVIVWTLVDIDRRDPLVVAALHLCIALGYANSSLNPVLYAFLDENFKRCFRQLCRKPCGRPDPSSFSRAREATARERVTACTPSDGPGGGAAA
Format: cell membranes, HEK293, Membrane
condition-description: hek293
recorded-endpoint: IC50

As a guide, the following entries are already answered.
| compound | IC50 |
| --- | --- |
| CCOC(=O)c1ccc(N)cc1 | Not Active |
| C[C@](N)(Cc1ccc(O)cc1)C(=O)O | Not Active |
| CC[C@@]1(O)C(=O)OCc2c1cc1n(c2=O)Cc2cc3ccccc3nc2-1 | Not Active |
| O=P1(NCCCl)OCCCN1CCCl (stereo unspecified) [IFOSFAMIDE] | Not Active |
| CN1CCC[C@H]1c1cccnc1 | Not Active |

Your task in this section: give IC50 for each listed record.
1. C[C@]12CCC(=O)C=C1CC[C@@H]1[C@@H]2C(=O)C[C@@]2(C)[C@H]1CC[C@]2(O)C(=O)CO
2. CC(C)(S)[C@@H](N)C(=O)O
3. CC(C)[C@H](N)C(=O)OCCOCn1cnc2c(=O)nc(N)[nH]c21
4. O=C(CCCN1CCC(O)(c2ccc(Cl)cc2)CC1)c1ccc(F)cc1

Reply text:
1: Not Active; 2: Not Active; 3: Not Active; 4: Not Active

Your task in this section: give IC50 for each listed record.
1. Fc1ccc([C@@H]2CCNC[C@H]2COc2ccc3c(c2)OCO3)cc1
2. Nc1nc(=O)[nH]cc1F
3. CN(C)[C@@H]1C(O)=C(C(N)=O)C(=O)[C@@]2(O)C(O)=C3C(=O)c4c(O)cccc4[C@@](C)(O)[C@H]3[C@H](O)[C@@H]12
4. COc1c(N2CCNC(C)C2)c(F)cc2c(=O)c(C(=O)O)cn(C3CC3)c12 (stereo unspecified)
5. C=C1C(=O)O[C@@H]2C3O[C@]3(C)CC/C=C(\C)CC[C@@H]12 (stereo partly specified)
6. Cc1cc(NS(=O)(=O)c2ccc(N)cc2)no1

Reply text:
["Not Active", "Not Active", "Not Active", "Not Active", "Not Active", "Not Active"]

====

test-summary: DRUGMATRIX: Leukotriene, BLT (LTB4) radioligand binding (ligand: [3H]LTB4)
Format: cell membranes, Membrane
condition-description: u-937; Not Active = under 50% inhibition at 10 µM
recorded-endpoint: Ki

As a guide, the following entries are already answered.
| compound | Ki |
| --- | --- |
| CN[C@H](CC(C)C)C(=O)N[C@H]1C(=O)N[C@@H](CC(N)=O)C(=O)N[C@H]2C(=O)N[C@H]3C(=O)N[C@H](C(=O)N[C@H](C(=O)O)c4cc(O)cc(O)c4-c4cc3ccc4O)[C@H](O)c3ccc(c(Cl)c3)Oc3cc2cc(c3O[C@@H]2O[C@H](CO)[C@@H](O)[C@H](O)[C@H]2O[C@H]2C[C@](C)(N)[C@H](O)[C@H](C)O2)Oc2ccc(cc2Cl)[C@H]1O | Not Active |
| COc1cc(C(=O)NC2CCCNC2)cc(OC)c1OC (configuration not stated) [TROXIPIDE] | Not Active |
| NC(CO)(CO)CO | Not Active |
| CC(C)[C@H](N)C(=O)OCCOCn1cnc2c(=O)nc(N)[nH]c21 | Not Active |
| Fc1ccc([C@@H]2CCNC[C@H]2COc2ccc3c(c2)OCO3)cc1 | Not Active |

Your task in this section: give Ki for each listed record.
1. NC(=O)c1ccccc1O [SALICYLAMIDE]
2. CCOC(=O)c1ccc(N)cc1

Reply text:
1: Not Active; 2: Not Active

====

measured-target: Matrix metalloproteinase-9 (Homo sapiens, UniProt P14780); also: in other assays of this panel Not Active means under 50% inhibition at 10 µM;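 also: inhibition of isolated MMP-9 enzyme activity toward a synthetic peptide substrate, from the DrugMatrix protease screening panel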
Sequence (P14780 whole entry): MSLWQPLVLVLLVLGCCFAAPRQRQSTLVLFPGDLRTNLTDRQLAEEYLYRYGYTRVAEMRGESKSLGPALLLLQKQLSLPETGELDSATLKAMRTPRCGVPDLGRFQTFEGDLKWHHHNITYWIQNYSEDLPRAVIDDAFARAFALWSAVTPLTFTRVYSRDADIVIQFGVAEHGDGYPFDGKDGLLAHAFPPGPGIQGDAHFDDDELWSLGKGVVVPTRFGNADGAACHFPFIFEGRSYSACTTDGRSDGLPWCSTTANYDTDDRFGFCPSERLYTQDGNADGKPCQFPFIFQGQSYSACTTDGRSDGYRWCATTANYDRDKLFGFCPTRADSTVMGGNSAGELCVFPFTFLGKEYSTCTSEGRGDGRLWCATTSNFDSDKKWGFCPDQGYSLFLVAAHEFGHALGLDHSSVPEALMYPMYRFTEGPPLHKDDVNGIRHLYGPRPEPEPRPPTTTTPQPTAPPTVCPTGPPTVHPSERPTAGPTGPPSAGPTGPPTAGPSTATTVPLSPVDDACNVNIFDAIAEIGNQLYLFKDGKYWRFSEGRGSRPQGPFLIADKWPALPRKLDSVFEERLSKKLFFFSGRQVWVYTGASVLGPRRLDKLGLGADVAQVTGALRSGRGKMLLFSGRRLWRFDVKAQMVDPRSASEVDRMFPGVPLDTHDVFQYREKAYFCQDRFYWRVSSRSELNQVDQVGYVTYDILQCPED
Type: cell-based
recorded-endpoint: IC50

| compound | result |
| --- | --- |
| Cc1[nH]cnc1CN1CCc2c(c3ccccc3n2C)C1=O [ALOSETRON] | Not Active |
| Nc1nnc(-c2cccc(Cl)c2Cl)c(N)n1 [LAMOTRIGINE] | Not Active |
| CN[C@@H]1[C@@H](O)[C@@H](O[C@@H]2[C@@H](O)[C@H](O[C@H]3OC(CN)=CC[C@H]3N)[C@@H](N)C[C@H]2N)OC[C@]1(C)O [SISOMICIN] | Not Active |
| CCC[C@@H]1C[C@@H](C(=O)N[C@@H]([C@H]2O[C@H](SC)[C@H](O)[C@@H](O)[C@H]2O)[C@@H](C)O)N(C)C1 [LINCOMYCIN] | Not Active |
| O=c1cc(-c2ccccc2)oc2c1ccc1ccccc12 [ALPHA-NAPHTHOFLAVONE] | Not Active |

Your task in this section: give IC50 for each listed record.
1. CN1CCC[C@H]1c1cccnc1 [NICOTINE]
2. c1ccc2c(c1)cc1ccc3cccc4ccc2c1c34
3. CC(C)(Oc1ccc(CCNC(=O)c2ccc(Cl)cc2)cc1)C(=O)O [BEZAFIBRATE]

Reply text:
1. Not Active
2. Not Active
3. Not Active

Your task in this section: give IC50 for each listed record.
1. Cn1cnc([N+](=O)[O-])c1Sc1ncnc2nc[nH]c12 [AZATHIOPRINE]
2. Brc1ccccc1 [BROMOBENZENE]
3. COc1c(C)c2c(c(O)c1C/C=C(\C)CCC(=O)OCCN1CCOCC1)C(=O)OC2 [MYCOPHENOLATE MOFETIL]

Reply text:
["Not Active", "Not Active", "Not Active"]

Your task in this section: give IC50 for each listed record.
1. Nc1nc2c(ncn2COC(CO)CO)c(=O)[nH]1 [GANCICLOVIR]
2. CN(C)[C@@H]1C(O)=C(C(N)=O)C(=O)[C@@]2(O)C(O)=C3C(=O)c4c(O)cccc4[C@@](C)(O)[C@H]3[C@H](O)[C@@H]12 [OXYTETRACYCLINE]
3. CC1CN(c2cc3c(cc2F)c(=O)c(C(=O)O)cn3-c2ccc(F)cc2F)CCN1 (stereo not drawn) [TEMAFLOXACIN]
4. COC(=O)C1=C(C)NC(C)=C(C(=O)OC)C1c1ccccc1[N+](=O)[O-] [NIFEDIPINE]

Reply text:
1: Not Active; 2: Not Active; 3: Not Active; 4: Not Active
